protocol: Cytotoxicity against human MT4 cells after 5 days by MTT assay
Assay type: cell-based
So I've got a bunch of compounds here, and I need their CC50 at 120 h values.

// field: CC50 at 120 h; key: Cc1cc(C#N)cc(C)c1Oc1nc(NCCn2ccc(=O)[nH]c2=O)nc(N)c1Br ; value = > 265 µM

// field: CC50 at 120 h; key: Cc1ccnc2c1NC(=O)c1cccnc1N2C1CC1 ; value = > 15 µM

// field: CC50 at 120 h; key: Cc1cc(C)c(Nc2nc(NCCn3ccc(=O)[nH]c3=O)ncc2[N+](=O)[O-])c(C)c1 ; value = ≥ 3.33 µM

// field: CC50 at 120 h; key: Cc1cc(/C=C/C#N)cc(C)c1Oc1ccnc(NCCn2ccc(=O)[nH]c2=O)n1 ; value = > 309 µM

// field: CC50 at 120 h; key: Cc1cc(/C=C/C#N)cc(C)c1Oc1nc(NCCn2ccc(=O)[nH]c2=O)ncc1Cl ; value = > 285 µM

// field: CC50 at 120 h; key: Cc1cc(C)c(Nc2nc(NCCn3ccc(=O)[nH]c3=O)ncc2N)c(C)c1 ; value = > 199 µM
